Value source: patent US12441768B2

- condition-set: % Viability non-Wnt responsive cells; note: test concentration or dose not given here
Where a SMILES comes first, the peptide text is derived from it.
Each entry below lists one item and its recorded viability value.
Quick reminder: number only, in %, skip the unit.

Consider the following illustrative entries.
CC[C@H](C)[C@H](NC(=O)[C@H](CC(C)C)NC(=O)[C@@H](NC(=O)[C@H](Cc1c[nH]c2ccccc12)NC(=O)[C@H](CCSC)NCc1ccccc1)[C@@H](C)CC)C(=O)N[C@@H](CO)C(=O)N[C@@H](Cc1ccccc1)C(=O)N[C@@H](Cc1c[nH]c2ccccc12)C(=O)NCC(=O)O [compound 223] (HELM PEPTIDE1{[CSCC[C@H](NCc1ccccc1)C(=O)[*:2]].W.I.L.I.S.F.W.G}$$$$V2.0) ... 101
CC[C@H](C)[C@H](NC(=O)[C@H](CC(C)C)NC(=O)C(C)(Cc1ccccc1)NC(=O)[C@H](Cc1c[nH]c2ccccc12)NC(=O)[C@@H](N)CCSC)C(=O)N[C@@H](CS)C(=O)N[C@@H](Cc1ccccc1)C(=O)N[C@@H](Cc1c[nH]c2ccccc12)C(=O)NCC(=O)O (stereo partly drawn) [compound 131] (HELM PEPTIDE1{M.W.[CC(Cc1ccccc1)(N[*:1])C(=O)[*:2]].L.I.C.F.W.G}$$$$V2.0) ... 93.1
CC[C@H](C)[C@H](NC(=O)[C@H](CC(C)C)NC(=O)[C@H](Cc1ccc(O)cc1)NC(=O)[C@H](Cc1c[nH]c2ccccc12)NC(=O)[C@H](CCSC)NC(=O)[C@H](CCCNC(=N)N)NC(=O)[C@H](CO)NC(=O)[C@@H](N)CCSC)C(=O)N[C@@H](CO)C(=O)N[C@@H](Cc1ccccc1)C(=O)N[C@@H](Cc1c[nH]c2ccccc12)C(=O)NCC(=O)O [compound 66] (H-MSRMWYLISFWG-OH) ... 98.6

INPUT: // returns reported viability for input CC[C@H](C)[C@H](NC(=O)[C@H](CC(C)C)NC(=O)[C@@H](NC(=O)[C@H](Cc1c[nH]c2ccccc12)NC(=O)[C@@H](N)Cc1c[nH]cn1)[C@@H](C)CC)C(=O)N[C@@H](CO)C(=O)N[C@@H](Cc1ccccc1)C(=O)N[C@@H](Cc1c[nH]c2ccccc12)C(=O)NCC(=O)O [compound 126] (H-HWILISFWG-OH)
OUTPUT: 111

INPUT: Entry under review: CC[C@H](C)[C@H](NC(=O)[C@H](CC(C)C)NC(=O)[C@H](Cc1ccccc1)NC(=O)[C@H](Cc1c[nH]c2ccccc12)NC(=O)[C@@H](N)CCSC)C(=O)N[C@@H](CO)C(=O)N[C@@H](Cc1ccccc1)C(=O)N[C@@H](Cc1c[nH]c2ccccc12)C(=O)N[C@@H](CCC(=O)O)C(=O)NCC(=O)O [compound 47] (H-MWFLISFWEG-OH) . Reported viability?
OUTPUT: 103

INPUT: // viability lookup, key: CC[C@H](C)[C@@H]1NC(=O)[C@H](CC(C)C)NC(=O)[C@H](Cc2ccccc2)NC(=O)[C@H](Cc2c[nH]c3ccccc23)NC(=O)[C@@H](N)CCCCNC(=O)CC[C@@H](C(=O)N[C@@H](Cc2c[nH]c3ccccc23)C(=O)NCC(=O)O)NC(=O)[C@H](CS)NC1=O [compound 173] (HELM PEPTIDE1{K.W.F.L.I.C.E.W.G}$PEPTIDE1,PEPTIDE1,1:R3-7:R3$$$V2.0)
OUTPUT: 107
